# Tested on: Saccharomyces cerevisiae BY4741 SeMeCo community
# test_details: z-score of subpopulation abundance vs DMSO median, subpopulation auxotrophic for HUM; higher = larger share of this subpopulation than in DMSO controls
# experimental_setup: 10 µM; 24 h; SM minimal medium; subpopulation (auxotrophy): HUM
Where a name gives a salt, the structure may show the parent alone.
measured_property: z-score of subpopulation abundance
Lab note: record just the number, no unit beside it.

Answered examples (5):
[[record]]
molecule = "COc1cc(/C=C/C(=O)N2CCN(CC(=O)N3CCCC3)CC2)cc(OC)c1OC [Cinepazide maleate]"
readout_value = -0.05

[[record]]
molecule = "CCCCCCCCN=C(N)NC(N)=NCc1ccc(Cl)c(Cl)c1 [Olanexidine Hydrochloride semihydrate]"
readout_value = 34.7

[[record]]
molecule = "Cc1ccc(Nc2c(F)cccc2Cl)c(CC(=O)O)c1 [Lumiracoxib]"
readout_value = -1.5

[[record]]
molecule = "CO[C@H]1C[C@@H]2CC[C@@H](C)[C@@](O)(O2)C(=O)C(=O)N2CCCC[C@H]2C(=O)O[C@H]([C@H](C)C[C@@H]2CC[C@@H](OC(=O)C(C)(CO)CO)[C@H](OC)C2)CC(=O)[C@H](C)/C=C(\\C)[C@@H](O)[C@@H](OC)C(=O)[C@H](C)C[C@H](C)/C=C/C=C/C=C/1C"
readout_value = 28.7

[[record]]
molecule = "CCCNC(C)C(=O)Nc1ccccc1C (stereo unspecified) [Prilocaine]"
readout_value = -0.22


Consider now this further molecule.
Query the reported z-score of subpopulation abundance for Saccharomyces cerevisiae BY4741 SeMeCo community; item: CN1CCN2c3ncccc3Cc3ccccc3C2C1 (stereo unspecified) [Mirtazapine]
1.07

###

# Test system: Saccharomyces cerevisiae BY4741 SeMeCo community
# test_details: mean cell size (pixel area) (pixels); higher = larger cells
# experimental_setup: 10 µM; 24 h; SM minimal medium
Where a name gives a salt, the structure may show the parent alone.
measured_property: mean cell size
Lab note: record just the number, no unit beside it.

[[record]]
compound = "CC(C)(C)CC(C)(C)c1ccc(OCCOCC[N+](C)(C)Cc2ccccc2)cc1 [Benzethonium Chloride]"
measured_property = "mean cell size"
readout_value = 11.7

[[record]]
compound = "COc1ccc2c(c1)C(=O)N(CCc1ccc(S(=O)(=O)NC(=O)NC3CCCCC3)cc1)C(=O)C2(C)C"
measured_property = "mean cell size"
readout_value = 12.5

[[record]]
compound = "CCCCCCCCCCCCCCCC[N+](C)(C)C [Cetrimonium Bromide (CTAB)]"
measured_property = "mean cell size"
readout_value = 10.8

[[record]]
compound = "COc1c(N2CCNC(C)C2)c(F)cc2c(=O)c(C(=O)O)cn(C3CC3)c12 (stereo not drawn)"
measured_property = "mean cell size"
readout_value = 12.4

[[record]]
compound = "Cc1onc(-c2c(F)cccc2Cl)c1C(=O)N[C@@H]1C(=O)N2[C@@H]1SC(C)(C)[C@@H]2C(=O)O [Flucloxacillin sodium]"
measured_property = "mean cell size"
readout_value = 12.6


Query the reported mean cell size for Saccharomyces cerevisiae BY4741 SeMeCo community; item: OC(Cn1cncn1)(Cn1cncn1)c1ccc(F)cc1F
12

Also need CC(C)C(=O)Oc1ccc(CO)cc1[C@H](CCN(C(C)C)C(C)C)c1ccccc1 [Fesoterodine Fumarate] , thanks.
12.3

Also need CC/C(=C(\c1ccccc1)c1ccc(OCCN(C)C)cc1)c1ccccc1 , thanks.
11.7
